Sourced from ChEMBL document CHEMBL1138937

Assay: Plasma clearance in Sprague-Dawley rat at 1 mg/kg, iv and 2 mg/kg, po
Format: ADME, organism-based
Items are presented alongside their recorded clearance.
Please report the result as a number followed by the unit.

Field: example entries. Status: answers known.
According to the records, this compound "Cc1cc(CCC(=O)O)ccc1-c1noc(-c2ccc(OC(C)C)c(Cl)c2)n1" displays clearance of 5.7 mL/min/kg

According to the records, this compound "Cc1cc(CCC(=O)O)ccc1-c1noc(-c2ccc(OCC(F)(F)F)c(C#N)c2)n1" displays clearance of 1.2 mL/min/kg

According to the records, this compound "Cc1cc(CCC(=O)O)ccc1-c1noc(-c2ccc(OC(C)C)c(C#N)c2)n1" displays clearance of 2.3 mL/min/kg

According to the records, this compound "Cc1cc(CCC(=O)O)ccc1-c1noc(-c2cnc(OC(C)C)c(Cl)c2)n1" displays clearance of 13.5 mL/min/kg

Continuing:
According to the records, this compound "Cc1cc(CCC(=O)O)ccc1-c1noc(-c2ccc(OC(C)C)c(C(F)(F)F)c2)n1" displays clearance of 8.7 mL/min/kg

====

Molecular target: Sphingosine 1-phosphate receptor 5 (Homo sapiens)
Sequence (Q9H228 whole entry): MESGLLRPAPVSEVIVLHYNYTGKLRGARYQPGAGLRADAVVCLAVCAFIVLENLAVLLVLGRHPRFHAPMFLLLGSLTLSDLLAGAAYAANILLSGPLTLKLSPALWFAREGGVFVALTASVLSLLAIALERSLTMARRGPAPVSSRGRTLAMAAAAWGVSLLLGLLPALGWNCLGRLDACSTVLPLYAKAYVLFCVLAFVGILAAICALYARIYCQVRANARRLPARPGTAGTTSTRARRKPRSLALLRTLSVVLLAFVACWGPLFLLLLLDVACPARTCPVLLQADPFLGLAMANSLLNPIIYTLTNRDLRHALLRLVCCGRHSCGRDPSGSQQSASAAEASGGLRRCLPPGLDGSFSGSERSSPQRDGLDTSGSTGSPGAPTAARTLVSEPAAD
Test: Agonist activity at S1P5 receptor expressed in CHO cells measured as S1P-induced [35S]GTP-gamma-S uptake
Type: functional, cell-based
Rule for this label: 1 (yes) means EC50 is less than 3 nM; 0 (no) means EC50 is at least 3 nM.

Examples with answers:
Check if EC50 falls below 3 nM for "Cc1cc(CCC(=O)O)ccc1-c1noc(-c2ccc(OC(C(F)(F)F)C(F)(F)F)c(C#N)c2)n1" .
1 (yes)

Check if EC50 falls below 3 nM for "Cc1cc(CCC(=O)O)ccc1-c1noc(-c2ccc(C3CCCCC3)cc2)n1" .
0 (no)

Continuing:
Check if EC50 falls below 3 nM for Cc1cc(CCC(=O)O)ccc1-c1noc(-c2cnc(OC(C)C(F)(F)F)c(Cl)c2)n1 (stereo not given) .
0 (no)

Check if EC50 falls below 3 nM for "Cc1cc(CCCC(=O)O)ccc1-c1noc(-c2ccc(C3CCCCC3)cc2)n1" .
0 (no)

Check if EC50 falls below 3 nM for Cc1cc(CCC(=O)O)ccc1-c1noc(-c2ccc(OC(C)C(F)(F)F)c(C#N)c2)n1 (stereo not given) .
0 (no)

====

Experiment: Oral bioavailability in Sprague-Dawley rat at 1 mg/kg, iv and 2 mg/kg, po
Assay type: ADME, organism-based
Conditions: in vivo
Value kind: bioavailability (%)
Reply with just the number (in %).

Field: example entries. Status: answers known.
According to the records, this compound "Cc1cc(CCC(=O)O)ccc1-c1noc(-c2ccc(OC(C)C)c(C#N)c2)n1" displays bioavailability of 53

According to the records, this compound "Cc1cc(CCC(=O)O)ccc1-c1noc(-c2ccc(OC(C)C)c(Cl)c2)n1" displays bioavailability of 80

According to the records, this compound "Cc1cc(CCC(=O)O)ccc1-c1noc(-c2cnc(OC(C)C)c(Cl)c2)n1" displays bioavailability of 78.3

According to the records, this compound "Cc1cc(CCC(=O)O)ccc1-c1noc(-c2ccc(OC(C)C)c(C(F)(F)F)c2)n1" displays bioavailability of 88

Continuing:
According to the records, this compound "Cc1cc(CCC(=O)O)ccc1-c1noc(-c2ccc(OCC(F)(F)F)c(C#N)c2)n1" displays bioavailability of 59
